Quick reference: pIC50 of the listed items.
system: Norepinephrine transporter (Rattus norvegicus)
Sequence (Q9WTR4 whole entry): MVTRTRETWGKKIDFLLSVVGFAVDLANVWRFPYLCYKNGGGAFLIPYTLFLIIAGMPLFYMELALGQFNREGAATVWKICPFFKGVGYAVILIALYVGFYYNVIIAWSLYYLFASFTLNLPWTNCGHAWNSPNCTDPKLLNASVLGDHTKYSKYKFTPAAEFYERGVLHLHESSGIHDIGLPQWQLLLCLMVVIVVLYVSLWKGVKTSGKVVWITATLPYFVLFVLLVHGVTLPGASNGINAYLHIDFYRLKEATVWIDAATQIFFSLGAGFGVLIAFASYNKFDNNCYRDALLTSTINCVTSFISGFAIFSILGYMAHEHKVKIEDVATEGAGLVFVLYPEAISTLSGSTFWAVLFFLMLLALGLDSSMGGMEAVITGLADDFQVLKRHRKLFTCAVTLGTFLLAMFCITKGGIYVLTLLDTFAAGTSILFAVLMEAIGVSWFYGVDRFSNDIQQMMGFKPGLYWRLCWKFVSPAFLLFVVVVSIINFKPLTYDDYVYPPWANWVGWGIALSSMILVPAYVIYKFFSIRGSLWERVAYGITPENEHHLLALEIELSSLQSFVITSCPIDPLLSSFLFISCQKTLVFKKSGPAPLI
// pIC50: -log10(molar conc.)

Consider the reported pIC50 for these compounds:
Cc1noc(C2C3CC[C@H](C[C@@H]2c2ccccc2)N3C)n1 (stereo in doubt; 8) : 5.16
Cc1noc(C2C3CC[C@H](C[C@@H]2c2ccc(Cl)cc2)N3C)n1 (stereo partly specified) : 6.44
Cc1ccc([C@H]2C[C@H]3CCC(C2c2nc(-c4ccccc4)no2)N3C)cc1 (stereo partly specified) : 7.22
COc1ccc(-c2noc(C3C4CC[C@H](C[C@@H]3c3ccc(Cl)cc3)N4C)n2)cc1 (stereo partly specified) : 6.08
CN1C2CC[C@@H]1C[C@H](c1ccc(Cl)cc1)C2c1nc(-c2ccccc2)no1 (stereo partly specified) : 6.61

Hey, Norepinephrine transporter (Rattus norvegicus) data for COC(=O)[C@@H]1C2CC[C@H](C[C@@H]1c1ccccc1)N2C : pIC50 came out at 6.04

Where do these numbers come from? They come from ChEMBL document CHEMBL1127054.
